- Test system: K98450-129-R-PDC multicell spheroids, viability
- Assay Notes: Anticancer human tumor K98450-129-R-PDC patient-derived colon adenocarcinoma cell line growth inhibition [PI3K]
- Experimental Conditions: second compound 0.1 µM; first compound 3.16 µM; stronger effect = lower value
Value Kind: viability, T/C (%)

[[record]]
molecule = "CC1(C)CCC(CN2CCN(c3ccc(C(=O)NS(=O)(=O)c4ccc(NCC5CCOCC5)c([N+](=O)[O-])c4)c(Oc4cnc5[nH]ccc5c4)c3)CC2)=C(c2ccc(Cl)cc2)C1 + Cc1nc(NC(=O)N2CCCC2C(N)=O)sc1-c1ccnc(C(C)(C)C(F)(F)F)c1"
value_kind = "viability, T/C"
unit_string = "%"
number = 92.5

[[record]]
molecule = "CC(C)NCC(C(=O)N1CCN(c2ncnc3c2C(C)CC3O)CC1)c1ccc(Cl)cc1 (stereo not drawn) + CC(Nc1ccc2c(c1)OCCn1cc(N3C(=O)OCC3C(F)F)nc1-2)C(N)=O"
value_kind = "viability, T/C"
unit_string = "%"
number = 101

[[record]]
molecule = "C#Cc1c(F)ccc2cc(O)cc(-c3ncc4c(N5CC6CCC(C5)N6)nc(OCC56CCCN5CC(F)C6)nc4c3F)c12 (stereo not drawn) + CC(Nc1ncnc2nc[nH]c12)c1cc2cccc(Cl)c2c(=O)n1-c1ccccc1"
value_kind = "viability, T/C"
unit_string = "%"
number = 98.2


---

- System: K98450-129-R-PDC multicell spheroids, viability
- Assay Notes: Anticancer human tumor K98450-129-R-PDC cell line growth inhibition [PI3K];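 also: spheroids exposed to agents for seven days before read-out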
- Experimental Conditions: second compound 1 µM; first compound 0.00316 µM; stronger effect = lower value
Value Kind: viability, T/C (%)

[[record]]
compound = "CCN1CCN(Cc2ccc(Nc3ncc(F)c(-c4cc(F)c5nc(C)n(C(C)C)c5c4)n3)nc2)CC1 + CC(Nc1ncnc2nc[nH]c12)c1cc2cccc(Cl)c2c(=O)n1-c1ccccc1"
number = 93.1

[[record]]
compound = "CCN1CCN(Cc2ccc(Nc3ncc(F)c(-c4cc(F)c5nc(C)n(C(C)C)c5c4)n3)nc2)CC1 + Cc1nc(NC(=O)N2CCCC2C(N)=O)sc1-c1ccnc(C(C)(C)C(F)(F)F)c1"
number = 98.3

[[record]]
compound = "CC(=O)c1c(C)c2cnc(Nc3ccc(N4CCNCC4)cn3)nc2n(C2CCCC2)c1=O + CC(Nc1ncnc2nc[nH]c12)c1cc2cccc(Cl)c2c(=O)n1-c1ccccc1"
number = 90.2

[[record]]
compound = "Cn1ncnc1[C@H]1c2n[nH]c(=O)c3cc(F)cc(c23)N[C@@H]1c1ccc(F)cc1 + Cc1nc(NC(=O)N2CCCC2C(N)=O)sc1-c1ccnc(C(C)(C)C(F)(F)F)c1"
number = 95.2

[[record]]
compound = "CC(=O)c1c(C)c2cnc(Nc3ccc(N4CCNCC4)cn3)nc2n(C2CCCC2)c1=O + Cc1nc(NC(=O)N2CCCC2C(N)=O)sc1-c1ccnc(C(C)(C)C(F)(F)F)c1"
number = 91.3

[[record]]
compound = "CC(=O)c1c(C)c2cnc(Nc3ccc(N4CCNCC4)cn3)nc2n(C2CCCC2)c1=O + COc1c(OCCCN2CCOCC2)ccc2c3n(c(=NC(=O)c4cnc(N)nc4)nc12)CCN3"
number = 51.6

[[record]]
compound = "Cn1ncnc1[C@H]1c2n[nH]c(=O)c3cc(F)cc(c23)N[C@@H]1c1ccc(F)cc1 + CC(Nc1ccc2c(c1)OCCn1cc(N3C(=O)OCC3C(F)F)nc1-2)C(N)=O"
number = 88.8

[[record]]
compound = "CCN1CCN(Cc2ccc(Nc3ncc(F)c(-c4cc(F)c5nc(C)n(C(C)C)c5c4)n3)nc2)CC1 + CC(Nc1ccc2c(c1)OCCn1cc(N3C(=O)OCC3C(F)F)nc1-2)C(N)=O"
number = 90.5

[[record]]
compound = "CC(C)n1nc(-c2ccc3oc(N)nc3c2)c2c(N)ncnc21 + COc1c(OCCCN2CCOCC2)ccc2c3n(c(=NC(=O)c4cnc(N)nc4)nc12)CCN3"
number = 58.5

[[record]]
compound = "CC(C)n1nc(-c2ccc3oc(N)nc3c2)c2c(N)ncnc21 + CC(Nc1ncnc2nc[nH]c12)c1cc2cccc(Cl)c2c(=O)n1-c1ccccc1"
number = 84.3

[[record]]
compound = "CC(C)n1nc(-c2ccc3oc(N)nc3c2)c2c(N)ncnc21 + CC(Nc1ccc2c(c1)OCCn1cc(N3C(=O)OCC3C(F)F)nc1-2)C(N)=O"
number = 81.3

[[record]]
compound = "Cn1ncnc1[C@H]1c2n[nH]c(=O)c3cc(F)cc(c23)N[C@@H]1c1ccc(F)cc1 + COc1c(OCCCN2CCOCC2)ccc2c3n(c(=NC(=O)c4cnc(N)nc4)nc12)CCN3"
number = 52.8

[[record]]
compound = "CC(C)n1nc(-c2ccc3oc(N)nc3c2)c2c(N)ncnc21 + Cc1nc(NC(=O)N2CCCC2C(N)=O)sc1-c1ccnc(C(C)(C)C(F)(F)F)c1"
number = 92.8

